- experimental_target: Grb2 SH2 (UniProt P62993)
- test_protocol: SH2 binding enrichment of the phosphorylated peptide, bacterial display (enrichment ratio); higher = better substrate or ligand; peptides without Tyr show the background
attribute_measured: SH2 binding enrichment

primary_sequence: EGNEQYEGFCV [GRIA3_Y451_R450Q_YF]
attribute_measured: SH2 binding enrichment
result_number: 0.84
--
primary_sequence: GMAHNYRNSSQ [AASS_Y188]
attribute_measured: SH2 binding enrichment
result_number: 0.702
--
primary_sequence: QGRQTYLLQPA [DDR2_Y813_P815L]
attribute_measured: SH2 binding enrichment
result_number: 1.21
--
primary_sequence: VEYAKYGSLQG [RET_Y809_R813Q]
attribute_measured: SH2 binding enrichment
result_number: 0.852
--
primary_sequence: NCLRQYVAGRF [CRB1_Y711_E710Q]
attribute_measured: SH2 binding enrichment
result_number: 0.709
--
primary_sequence: LWEGSYGKVKE [STK11_Y60_G56W]
attribute_measured: SH2 binding enrichment
result_number: 0.645
--
primary_sequence: LLKKVYLMLDN [STAT1_Y203_M202V]
attribute_measured: SH2 binding enrichment
result_number: 0.96
--
primary_sequence: TSNQEYLFLSM [FGFR1_Y766_D768Y_YF]
attribute_measured: SH2 binding enrichment
result_number: 0.877
--
primary_sequence: HSYNSYTYPRL [PAK5_Y316]
attribute_measured: SH2 binding enrichment
result_number: 1.04
--
primary_sequence: IGMLIYFARKA [VCAM1_Y718_I716L]
attribute_measured: SH2 binding enrichment
result_number: 1.43

a. VTRLWYPVCFG [ITK_Y336_R335W]
b. LPQDGYRIVQH [PTPRT_Y1329_R1324L]
Form field 'greater SH2 binding enrichment' accepts a or b ; which applies? Let me know the label of the one you choose. a

* * *

Let's look at some sequences and their measured phosphorylation enrichment.
- experimental_target: Jak2 (UniProt O60674)
- Sequence (O60674 whole entry, looked up): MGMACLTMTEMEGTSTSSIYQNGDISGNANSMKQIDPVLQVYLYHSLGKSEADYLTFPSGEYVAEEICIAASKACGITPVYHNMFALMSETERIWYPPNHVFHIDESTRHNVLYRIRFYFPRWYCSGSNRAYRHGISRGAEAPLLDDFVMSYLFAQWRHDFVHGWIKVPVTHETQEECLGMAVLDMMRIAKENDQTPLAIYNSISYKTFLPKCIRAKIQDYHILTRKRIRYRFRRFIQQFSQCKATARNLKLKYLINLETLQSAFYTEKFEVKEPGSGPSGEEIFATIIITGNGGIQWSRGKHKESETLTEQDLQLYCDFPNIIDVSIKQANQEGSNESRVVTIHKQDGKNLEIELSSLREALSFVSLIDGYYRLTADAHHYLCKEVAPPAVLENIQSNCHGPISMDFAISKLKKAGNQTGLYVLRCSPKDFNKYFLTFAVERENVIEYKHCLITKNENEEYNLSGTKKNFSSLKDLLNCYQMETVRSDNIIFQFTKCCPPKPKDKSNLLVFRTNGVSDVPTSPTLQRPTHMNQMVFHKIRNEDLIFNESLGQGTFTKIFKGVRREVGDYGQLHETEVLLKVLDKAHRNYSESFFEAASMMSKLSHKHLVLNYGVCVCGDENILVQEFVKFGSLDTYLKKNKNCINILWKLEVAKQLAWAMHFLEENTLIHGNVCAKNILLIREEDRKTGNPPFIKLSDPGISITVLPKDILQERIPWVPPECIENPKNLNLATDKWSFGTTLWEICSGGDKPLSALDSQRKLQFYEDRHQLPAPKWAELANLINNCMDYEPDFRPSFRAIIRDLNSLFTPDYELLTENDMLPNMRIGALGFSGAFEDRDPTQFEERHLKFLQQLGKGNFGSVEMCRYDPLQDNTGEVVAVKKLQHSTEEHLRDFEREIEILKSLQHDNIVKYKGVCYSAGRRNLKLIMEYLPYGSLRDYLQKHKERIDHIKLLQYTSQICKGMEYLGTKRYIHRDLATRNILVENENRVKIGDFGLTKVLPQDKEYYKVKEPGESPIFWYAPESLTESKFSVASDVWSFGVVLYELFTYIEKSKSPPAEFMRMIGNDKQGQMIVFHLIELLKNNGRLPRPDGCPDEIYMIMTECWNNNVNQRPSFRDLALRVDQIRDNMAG
- test_protocol: phosphorylation enrichment, bacterial display (enrichment ratio); higher = better substrate or ligand; peptides without Tyr show the background
Keep the answer to the number alone.

Consider the sequence shown here: PGPQSYPIVTG [PAX5_Y299] What is its recorded phosphorylation enrichment? 0.533

Consider the sequence shown here: GLDGSYLLTDS [SH2D1A_Y29_R32T] What is its recorded phosphorylation enrichment? 0.697

Consider the sequence shown here: NPQKSYFIRLY [WAS_Y83] What is its recorded phosphorylation enrichment? 1.07

* * *

- experimental_target: Grb2 SH2 (UniProt P62993)
- test_protocol: SH2 binding enrichment of the phosphorylated peptide, bacterial display (enrichment ratio); higher = better substrate or ligand; peptides without Tyr show the background
attribute_measured: SH2 binding enrichment

1. EKGEEYGGGGG [TUBA1A_Y451_E447K]
2. RGGDSYGGPPR [RBMX_Y190_R187G]
3. RPGSGYTNIMR [PKLR_Y564]
4. VEDHFYEGGIG [TKT_Y564_YF]
Place the item with the largest SH2 binding enrichment first, then continue in falling order, using the list above. Present the labels in the sequence the task asks for. 2, 3, 1, 4
(2: 1.96, 3: 1.32, 1: 0.911, 4: 0.592)

P. YKIYRYTLNDN [FN1_Y1975_L1974R]
Q. PDGHEYIYVDP [PDGFRA_Y572]
R. KPGLKYVTFGN [GALNTL5_Y404_YF]
Would you mind ranking these sequences by ascending SH2 binding enrichment? Present the labels in the sequence the task asks for. P, R, Q

P. SVQVDYMKTIL [GLYATL2_Y127]
Q. PQAVRYIFTID [DCX_Y103_G100A_YF]
Form field 'greater SH2 binding enrichment' accepts P or Q ; which applies? Let me know the label of the one you choose. Q
(Q: 1.53, P: 0.772)

A. GGGGSYNNFGN [HNRNPA1_Y312_D314N]
B. YTNELYMMMRD [FGFR1_Y730_C725Y]
Input pair: A , B . Output: entry with lower SH2 binding enrichment. Let me know the label of the one you choose. A
